compounds and their reported IC50
Target: UniProt:Q8VM67
Sequence (Q8VM67 whole entry): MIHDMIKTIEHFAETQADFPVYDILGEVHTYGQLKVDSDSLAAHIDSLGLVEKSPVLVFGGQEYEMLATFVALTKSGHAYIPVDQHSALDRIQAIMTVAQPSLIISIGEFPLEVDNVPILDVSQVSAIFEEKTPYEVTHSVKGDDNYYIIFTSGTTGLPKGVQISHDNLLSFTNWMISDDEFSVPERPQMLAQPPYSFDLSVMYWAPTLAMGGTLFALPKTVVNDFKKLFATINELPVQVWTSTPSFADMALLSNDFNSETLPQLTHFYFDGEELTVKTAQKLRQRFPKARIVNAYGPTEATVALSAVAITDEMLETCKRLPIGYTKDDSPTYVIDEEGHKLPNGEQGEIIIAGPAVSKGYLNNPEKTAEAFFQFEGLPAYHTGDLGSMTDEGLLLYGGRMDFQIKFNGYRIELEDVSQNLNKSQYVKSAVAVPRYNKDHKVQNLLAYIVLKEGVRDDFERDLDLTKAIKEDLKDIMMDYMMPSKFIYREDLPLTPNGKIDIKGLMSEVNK
Where a name gives a salt, the structure may show the parent alone.
measured_parameter: IC50 (nM)

In [3]: df
Out[3]:
                                    compound  experimental_target  display_unit  measured_result
 0  O=c1[nH]cnc2c(-c3ccc4c(c3)ncn4C3CCCCC3)sc(N3CCNCC3)c12 [Example 28, hydrochloride]       UniProt:Q8VM67            nM             1200
 1  O=c1[nH]cnc2c(-c3ccc4c(c3)ncn4C3CCCCC3)sc(N3CC4C(O)C4C3)c12 (stereo not drawn)       UniProt:Q8VM67            nM             2200
 2  O=c1[nH]cnc2c(-c3ccc4c(c3)ncn4C3CCCCC3)sc(N3CC4CNCC4C3)c12 (stereo not drawn) [Example 25, hydrochloride]       UniProt:Q8VM67            nM              630
 3  COCCn1cnc2cc(-c3sc(N4CC[C@H](CO)C4)c4c(=O)[nH]cnc34)ccc21       UniProt:Q8VM67            nM             5100
 4  O=c1[nH]cnc2c1c(C1CCC(CO)C1)cn2-c1ccc2c(c1)ncn2C1CCCCC1 (stereo not drawn)       UniProt:Q8VM67            nM             6100
 5  O=c1[nH]cnc2c(-c3ccc4c(c3)ncn4C3CCCCC3)cn(CCCO)c12       UniProt:Q8VM67            nM             3800
 6  CCn1cnc2cc(-c3sc(N4CC[C@H](CO)C4)c4c(=O)[nH]cnc34)ccc21       UniProt:Q8VM67            nM             3400
 7  O=c1[nH]cnc2c(-c3ccc4c(c3)ncn4C3CCCCC3)sc(N3CC4CNCC4(CO)C3)c12 (stereo not drawn) [Example 34, hydrochloride]       UniProt:Q8VM67            nM              400
 8  O=c1[nH]cnc2c1c(CCCO)cn2-c1ccc2c(c1)ncn2C1CCCCC1       UniProt:Q8VM67            nM             4500
 9  O=c1[nH]cnc2c1c(C1=CCNCC1)cn2-c1ccc2c(c1)ncn2C1CCCCC1 [Example 52, hydrochloride]       UniProt:Q8VM67            nM              350
10  O=c1[nH]cnc2c(-c3ccc4c(c3)ncn4C3CCCCC3)sc(C3=CCNCC3)c12 [Example 37, hydrochloride]       UniProt:Q8VM67            nM              660
11  CN1CC=C(c2cn(-c3ccc4c(c3)ncn4C3CCCCC3)c3nc[nH]c(=O)c23)CC1       UniProt:Q8VM67            nM              590
12  O=c1[nH]cnc2c(-c3ccc4c(c3)ncn4C3CCCCC3)cn([C@H]3CC[C@@H](CO)CC3)c12       UniProt:Q8VM67            nM             1100
13  O=c1[nH]cnc2c(-c3ccc4c(c3)ncn4[C@@H]3CCCC[C@H]3F)sc(N3CC[C@H](CO)C3)c12       UniProt:Q8VM67            nM             2600
14  O=c1[nH]cnc2c(-c3ccc4c(c3)ncn4C3CCCCC3)cn(C3CCNCC3)c12       UniProt:Q8VM67            nM             1000
